systemUnderTest: Nitric oxide synthase 1 (Rattus norvegicus)
assayText: Inhibition of nNOS in Wistar rat striata tissue homogenate assessed as conversion of L-[3H]arginine to L-[3H]citrulline at 1 mM by liquid scintillation spectroscopy
Type: tissue-based
measurementContext: Striatum
assayReadout: inhibition (%)

Below are worked cases with known answers.
CNC(=O)c1ccc(-c2cc(Cl)ccc2N)[nH]1    17.1
Nc1ccccc1-c1ccc(C(=O)NCc2ccccc2)[nH]1    7.52

P: CCCCNC(=O)c1ccc(-c2ccccc2N)[nH]1
Q: COc1ccc(N)c(-c2ccc(C(=O)NC3CCCC3)[nH]2)c1
R: COc1ccc(N)c(-c2ccc(C(=O)NCc3ccccc3)[nH]2)c1
S: Nc1ccccc1-c1ccc(C(=O)NC2CC2)[nH]1
Asked: Could you please order the items by inhibition, going from the lowest number to the highest? List labels; respect the requested ordering.
Given back: P, S, R, Q

###

systemUnderTest: Nitric oxide synthase 1 (Mus musculus)
assayText: Inhibition of constitutive mitochondrial NOS in stantia nigra isolated from MPTP-induced parkinson's disease C57/Bl6 mouse model assessed as L-[3H]citrulline per mg of protein at 20 mg/kg, b.w 1 hr before MPTP challenge after 32 hrs by liquid scintillation spectroscopy
Type: organism-based
Set-up: dose 20 mg/kg
assayReadout: Activity (pmol/min)

CNC(=O)c1ccc(-c2ccccc2N)[nH]1    9.95
COc1ccc2[nH]cc(CCNC(C)=O)c2c1    13.8
CN1CC=C(c2ccccc2)CC1    25.9
Nc1ccccc1-c1ccc(C(=O)NC2CCCC2)[nH]1    14.1

###

systemUnderTest: Nitric oxide synthase, inducible (Rattus norvegicus)
assayText: Inhibition of iNOS in LPS-treated Wistar rat lung tissue homogenate assessed as conversion of L-[3H]arginine to L-[3H]citrulline at 1 mM by liquid scintillation spectroscopy
assayReadout: inhibition (%)

COc1ccc(N)c(-c2ccc(C(=O)NC3CC3)[nH]2)c1    21.4

P: Nc1ccccc1-c1ccc(C(=O)NCc2ccccc2)[nH]1
Q: Nc1ccc(Cl)cc1-c1ccc(C(=O)NC2CC2)[nH]1
Asked: Would you let me know which has the greater inhibition value, P or Q ? # respond with the chosen item's label
Given back: P

###

systemUnderTest: Nitric oxide synthase, inducible (Rattus norvegicus) (UniProt Q06518)
Sequence (Q06518 whole entry): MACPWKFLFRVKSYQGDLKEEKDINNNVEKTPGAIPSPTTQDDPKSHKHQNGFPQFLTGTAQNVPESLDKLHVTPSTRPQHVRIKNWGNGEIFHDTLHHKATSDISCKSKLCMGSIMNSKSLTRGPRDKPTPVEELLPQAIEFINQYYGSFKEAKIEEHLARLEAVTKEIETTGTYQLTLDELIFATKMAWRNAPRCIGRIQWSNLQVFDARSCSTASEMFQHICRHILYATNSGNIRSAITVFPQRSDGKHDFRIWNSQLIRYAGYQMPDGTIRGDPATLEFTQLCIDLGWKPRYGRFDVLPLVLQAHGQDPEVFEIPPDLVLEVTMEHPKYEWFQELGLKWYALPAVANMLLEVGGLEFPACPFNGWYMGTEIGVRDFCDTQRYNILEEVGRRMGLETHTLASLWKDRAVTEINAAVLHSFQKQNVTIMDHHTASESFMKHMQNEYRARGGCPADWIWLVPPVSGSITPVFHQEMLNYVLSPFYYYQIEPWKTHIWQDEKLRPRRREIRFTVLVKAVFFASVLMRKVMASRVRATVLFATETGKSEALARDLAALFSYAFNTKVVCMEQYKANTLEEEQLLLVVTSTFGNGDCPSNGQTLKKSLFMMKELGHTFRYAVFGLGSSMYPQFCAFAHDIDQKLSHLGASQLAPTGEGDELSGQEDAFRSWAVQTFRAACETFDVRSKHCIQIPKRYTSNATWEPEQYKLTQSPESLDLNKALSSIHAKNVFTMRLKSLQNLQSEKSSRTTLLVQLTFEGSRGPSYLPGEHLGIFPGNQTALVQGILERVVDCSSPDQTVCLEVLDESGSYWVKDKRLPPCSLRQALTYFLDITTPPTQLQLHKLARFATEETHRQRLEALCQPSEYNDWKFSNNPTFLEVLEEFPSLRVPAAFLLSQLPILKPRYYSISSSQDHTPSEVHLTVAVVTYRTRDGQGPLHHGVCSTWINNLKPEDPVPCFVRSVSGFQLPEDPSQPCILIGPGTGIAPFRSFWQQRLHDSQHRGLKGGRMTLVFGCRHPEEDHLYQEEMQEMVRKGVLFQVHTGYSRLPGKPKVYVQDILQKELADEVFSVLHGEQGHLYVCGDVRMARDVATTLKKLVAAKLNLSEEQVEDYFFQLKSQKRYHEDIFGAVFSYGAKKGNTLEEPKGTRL
assayText: Inhibition of iNOS in LPS-treated Wistar rat lung tissue homogenate assessed as conversion of L-[3H]arginine to L-[3H]citrulline at 1 mM by liquid scintillation spectroscopy
assayReadout: inhibition (%)

Nc1ccccc1-c1ccc(C(=O)NC2CCC2)[nH]1    20.1

P: Cn1c(C(N)=O)ccc1-c1ccccc1N
Q: NC(=O)c1ccc(-c2cc(Cl)ccc2N)[nH]1
Asked: Hi! Which is lower in terms of inhibition, the first one P or the second one Q ? I would appreciate it if you answered with the label of your choice.
Given back: Q
(Q: 5.34%, P: 16%)
